Just for reference, patent US20190330141A1 is where these values come from.

biological target: human TRPM8 (Homo sapiens); construct: expressed in transfected cells; host or cells: HEK-293; assay: TRPM8 Protocol-FLIPR Assay (intracellular Ca2+ in transfected HEK-293 cells); format: cell-based; settings: HEK-293 cells stably transfected with human TRPM8; fluorescence compared to benchmark agonist WS-5; dose-response curve fit; read-out: TRPM8 Activity EC50
Sequence (Q7Z2W7 whole entry): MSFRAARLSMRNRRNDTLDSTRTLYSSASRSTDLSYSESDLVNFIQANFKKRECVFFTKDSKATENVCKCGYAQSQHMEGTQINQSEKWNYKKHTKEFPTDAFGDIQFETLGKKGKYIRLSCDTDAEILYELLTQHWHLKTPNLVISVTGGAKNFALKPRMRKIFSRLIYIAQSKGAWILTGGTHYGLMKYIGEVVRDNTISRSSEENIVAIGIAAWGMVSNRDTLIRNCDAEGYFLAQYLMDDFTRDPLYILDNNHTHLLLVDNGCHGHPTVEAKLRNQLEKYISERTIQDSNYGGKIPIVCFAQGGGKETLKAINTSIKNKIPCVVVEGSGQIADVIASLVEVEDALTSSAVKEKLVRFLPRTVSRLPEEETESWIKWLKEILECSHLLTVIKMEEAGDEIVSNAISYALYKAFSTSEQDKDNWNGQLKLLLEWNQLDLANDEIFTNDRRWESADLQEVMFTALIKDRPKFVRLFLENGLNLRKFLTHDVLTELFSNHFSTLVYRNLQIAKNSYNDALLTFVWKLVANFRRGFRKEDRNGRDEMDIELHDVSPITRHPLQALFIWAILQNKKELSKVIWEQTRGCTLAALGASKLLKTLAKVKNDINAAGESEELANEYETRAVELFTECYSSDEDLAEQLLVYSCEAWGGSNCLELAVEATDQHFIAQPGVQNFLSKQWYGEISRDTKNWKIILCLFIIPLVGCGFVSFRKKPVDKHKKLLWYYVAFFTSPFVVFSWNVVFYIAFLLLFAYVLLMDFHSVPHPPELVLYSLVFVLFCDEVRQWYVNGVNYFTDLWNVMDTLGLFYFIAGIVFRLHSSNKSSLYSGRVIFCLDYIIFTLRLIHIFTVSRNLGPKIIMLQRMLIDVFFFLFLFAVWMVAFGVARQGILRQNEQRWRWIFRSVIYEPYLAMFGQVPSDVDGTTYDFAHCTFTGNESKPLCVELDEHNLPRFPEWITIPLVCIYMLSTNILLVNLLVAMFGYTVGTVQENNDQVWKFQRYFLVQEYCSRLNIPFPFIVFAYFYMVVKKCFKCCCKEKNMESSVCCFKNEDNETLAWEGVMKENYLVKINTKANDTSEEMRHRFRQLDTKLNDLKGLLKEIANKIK
Counter-ions that a name gives are not always drawn.
endpoint: EC50 (nM)
Respond with the bare value in nM.

[in] Field request: EC50 | item: NCC(=O)O[C@H](CNC(=O)C12CC3CC(CC(C3)C1)C2)c1ccccc1 [Compound 11a, hydrochloride]
[out] 17.2

[in] And then Cc1ccc(C(C)C)c(C(=O)NC[C@@H](NC(=O)CN)c2ccccc2)c1.Cl [Compound 6a] , what is it?
[out] 1.9

[in] And then Cc1ccc(C(C)C)c(C(=O)NC[C@@H](NC(=O)[C@@H](C)N)c2ccccc2)c1.Cl [Compound 6c] , what is it?
[out] 3.2

[in] And then CC(C)[C@@H]1CC[C@@H](C)C[C@H]1C(=O)Nc1ccc(CC#N)cc1 [Comp 3, reference compound] , what is it?
[out] 600

[in] And then CC(C)C(C)(C(=O)NC[C@@H](OC(=O)CN)c1ccccc1)C(C)C.Cl [Compound 10a, hydrochloride] , what is it?
[out] 7.85

[in] And then CC(C)[C@@H]1CC[C@@H](C)C[C@H]1C(=O)NC[C@@H](NC(=O)[C@H](C)N)c1ccccc1 [Comp 4, reference compound] , what is it?
[out] 9

[in] And then CC(C)=CCC/C(C)=C/C(=O)NC[C@@H](NC(=O)[C@@H](C)N)c1ccccc1 [Compound 4b] , what is it?
[out] 1450
